system name: Alpha-amylase 1A (Homo sapiens)
Sequence (P0DUB6 whole entry): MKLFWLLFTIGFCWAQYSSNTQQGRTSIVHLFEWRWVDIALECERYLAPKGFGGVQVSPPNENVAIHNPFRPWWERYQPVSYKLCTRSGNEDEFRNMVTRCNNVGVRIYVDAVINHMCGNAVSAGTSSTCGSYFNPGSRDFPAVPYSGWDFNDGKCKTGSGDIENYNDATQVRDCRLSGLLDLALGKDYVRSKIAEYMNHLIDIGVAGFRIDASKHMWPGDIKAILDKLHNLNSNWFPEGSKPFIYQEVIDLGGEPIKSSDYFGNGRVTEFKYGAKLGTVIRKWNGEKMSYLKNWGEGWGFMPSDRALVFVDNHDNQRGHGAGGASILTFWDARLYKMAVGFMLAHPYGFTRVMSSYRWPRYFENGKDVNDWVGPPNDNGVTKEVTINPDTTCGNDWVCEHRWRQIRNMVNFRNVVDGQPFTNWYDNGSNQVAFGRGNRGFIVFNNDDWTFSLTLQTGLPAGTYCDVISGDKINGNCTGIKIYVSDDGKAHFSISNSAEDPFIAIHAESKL
A collection of molecules and their measured IC50
reported metric: IC50 (µM)

1) COc1cccc(-n2cc(CN3C(=O)SC(=CN(C)C)C3=O)nn2)c1 = 69
2) CCCCn1cc(CN2C(=O)SC(=CN(C)C)C2=O)nn1 = 58
3) Cc1ccc(C)c(-n2cc(CN3C(=O)SC(=CN(C)C)C3=O)nn2)c1 = 93
4) CN(C)C=C1SC(=O)N(Cc2cn(CC(=O)c3ccc(Br)cc3)nn2)C1=O = 78
5) CN(C)C=C1SC(=O)N(Cc2cn(-c3cccc(Cl)c3Cl)nn2)C1=O = 60
6) CCc1ccccc1-n1cc(CN2C(=O)SC(=CN(C)C)C2=O)nn1 = 49
7) CN(C)C=C1SC(=O)N(Cc2cn(Cc3ccccc3)nn2)C1=O = 80
8) CN(C)C=C1SC(=O)N(Cc2cn(-c3ccc([N+](=O)[O-])cc3)nn2)C1=O = 59
9) CN(C)C=C1SC(=O)N(Cc2cn(-c3ccc(C(F)(F)F)cc3)nn2)C1=O = 84
10) CN(C)C=C1SC(=O)N(Cc2cn(-c3ccccc3)nn2)C1=O = 99
11) CN(C)C=C1SC(=O)N(Cc2cn(-c3ccc(Cl)cc3)nn2)C1=O = 98
